- Test system: RPMI-8226 leukemia
- Assay Comment: NCI tumour cell line growth inhibition, 48 h
Metric: GI50

The compound COc1ccc(O)c(C(=O)c2ccc(C(=O)N[C@H]3CCCNC[C@@H]3NC(=O)c3ccncc3)cc2)c1F , tested on RPMI-8226 leukemia, showed GI50 of 10.3 µM

The reported GI50 value, RPMI-8226 leukemia, for OCCCNc1nccc(-c2c(-c3ccc(F)cc3)nn3cc(C(F)(F)F)ccc23)n1 reads 22.9 µM

The recorded GI50 with RPMI-8226 leukemia for C1=C\COCc2cc(ccc2OCCN2CCCC2)Nc2nccc(n2)-c2cccc(c2)COC/1 was 3.12 µM

Tested on RPMI-8226 leukemia, the item CCCOc1ccc2sc(NC(=O)OC)nc2c1 showed GI50 equal to 2.65 µM
